Cited source: patent US20260102501A1

Record form. Attribute: IC50. Fill in for each entry.

Inquiry: Tell me reported IC50 for `CC[C@@]1(O)C(=O)OCc2c1cc1n(c2=O)Cc2cc3c(CN(C)C)c(OC(=O)N4CCN(CC5CCN(c6ccc(C(=O)N[C@H]7CC[C@H](N(C)c8ccc(C#N)c(Cl)c8)CC7)nn6)CC5)CC4)ccc3nc2-1` , tested with GR (cytosol from IM-9 cells) (Homo sapiens).
Sequence (P04150 whole entry): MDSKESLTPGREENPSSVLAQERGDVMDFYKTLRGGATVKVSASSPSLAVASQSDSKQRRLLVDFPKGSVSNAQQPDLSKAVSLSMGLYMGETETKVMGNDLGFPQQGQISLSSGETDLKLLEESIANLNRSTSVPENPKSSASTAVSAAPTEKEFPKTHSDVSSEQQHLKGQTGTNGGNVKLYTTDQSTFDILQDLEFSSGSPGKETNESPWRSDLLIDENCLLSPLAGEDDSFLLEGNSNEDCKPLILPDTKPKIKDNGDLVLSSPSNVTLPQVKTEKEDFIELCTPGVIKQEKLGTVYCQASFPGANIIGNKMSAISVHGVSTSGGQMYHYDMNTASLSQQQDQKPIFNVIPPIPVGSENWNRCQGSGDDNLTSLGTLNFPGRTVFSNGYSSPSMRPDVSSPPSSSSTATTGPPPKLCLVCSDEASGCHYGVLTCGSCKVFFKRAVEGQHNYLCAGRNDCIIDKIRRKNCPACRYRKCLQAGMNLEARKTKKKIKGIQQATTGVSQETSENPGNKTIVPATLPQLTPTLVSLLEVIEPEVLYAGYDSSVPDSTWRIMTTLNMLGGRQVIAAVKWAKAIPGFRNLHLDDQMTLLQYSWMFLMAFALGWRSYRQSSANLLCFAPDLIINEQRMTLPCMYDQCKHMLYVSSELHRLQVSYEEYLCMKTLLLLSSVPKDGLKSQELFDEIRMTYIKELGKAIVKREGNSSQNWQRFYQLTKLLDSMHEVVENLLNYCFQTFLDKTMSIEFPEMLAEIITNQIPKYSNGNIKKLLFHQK
Reply text: 101 to 1000 nM

Inquiry: Tell me reported IC50 for `CC[C@@]1(O)C(=O)OCc2c1cc1n(c2=O)Cc2cc3c(CN(C)C)c(OC(=O)N4CCN(CCCCCCNc5ccc([C@H]6C[C@@]7(C)[C@@H](CC[C@]7(OC(C)=O)C(C)=O)[C@@H]7CCC8=CC(=O)CCC8=C76)cc5)CC4)ccc3nc2-1` , tested with GR (cytosol from IM-9 cells) (Homo sapiens).
Reply text: < 10 nM

Inquiry: Tell me reported IC50 for `CC[C@@]1(O)C(=O)OCc2c1cc1n(c2=O)Cc2cc3c(CN(C)C)c(OC(=O)N4C[C@H](C)N(C(=O)C5CCN(c6ccc(C(=O)N[C@H]7CC[C@H](Oc8ccc(C#N)c(Cl)c8C)CC7)nn6)CC5)C[C@H]4C)ccc3nc2-1` , tested with GR (cytosol from IM-9 cells) (Homo sapiens).
Reply text: > 1000 nM

Inquiry: Tell me reported IC50 for `CC[C@@]1(O)C(=O)OCc2c1cc1n(c2=O)Cc2c-1nc1cc(F)c(C)c3c1c2[C@@H](NCC1CCN(CC2CCN(C(=O)CN(C)c4ccc([C@H]5C[C@@]6(C)[C@@H](CC[C@]6(OC(C)=O)C(C)=O)[C@@H]6CCC7=CC(=O)CCC7=C65)cc4)CC2)CC1)CC3` , tested with GR (cytosol from IM-9 cells) (Homo sapiens).
Reply text: 10 to 100 nM

* * *

SYSTEM UNDER TEST: AR (cytosol from LnCaP cells) (Homo sapiens, UniProt P10275, T878A)
Sequence (P10275 whole entry T878A): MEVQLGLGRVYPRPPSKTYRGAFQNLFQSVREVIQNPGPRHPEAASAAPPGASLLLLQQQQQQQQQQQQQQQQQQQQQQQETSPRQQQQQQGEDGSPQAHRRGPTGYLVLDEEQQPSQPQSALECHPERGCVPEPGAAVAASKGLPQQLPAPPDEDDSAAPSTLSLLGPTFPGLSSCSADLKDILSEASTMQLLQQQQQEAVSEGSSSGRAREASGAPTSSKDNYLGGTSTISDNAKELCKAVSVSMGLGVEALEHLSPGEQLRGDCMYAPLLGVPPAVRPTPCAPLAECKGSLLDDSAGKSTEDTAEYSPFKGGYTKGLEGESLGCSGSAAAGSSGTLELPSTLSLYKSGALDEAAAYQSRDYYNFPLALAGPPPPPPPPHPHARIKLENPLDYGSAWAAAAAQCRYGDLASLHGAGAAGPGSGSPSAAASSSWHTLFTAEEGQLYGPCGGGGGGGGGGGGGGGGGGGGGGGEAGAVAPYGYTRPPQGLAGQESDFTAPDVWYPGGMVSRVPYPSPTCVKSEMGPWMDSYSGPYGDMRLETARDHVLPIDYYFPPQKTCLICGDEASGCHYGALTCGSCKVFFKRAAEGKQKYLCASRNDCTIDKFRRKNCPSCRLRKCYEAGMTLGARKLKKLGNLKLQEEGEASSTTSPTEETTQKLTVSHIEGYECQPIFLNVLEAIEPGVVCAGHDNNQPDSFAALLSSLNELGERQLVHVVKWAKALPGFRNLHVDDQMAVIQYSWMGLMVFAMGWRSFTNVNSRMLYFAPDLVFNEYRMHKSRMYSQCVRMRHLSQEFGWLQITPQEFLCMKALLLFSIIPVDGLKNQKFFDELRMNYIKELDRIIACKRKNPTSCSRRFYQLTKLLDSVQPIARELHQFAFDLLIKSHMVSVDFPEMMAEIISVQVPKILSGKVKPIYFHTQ
METHOD SUMMARY: AR binding assay (3H-R1881 displacement)
pIC50: −log10 of the molar value.
READOUT: pIC50

Inquiry: Tell me reported pIC50 for CC[C@@]1(O)C(=O)OCc2c1cc1n(c2=O)Cc2cc3c(CN(C)C)c(OC(=O)N4CCN(CCCCCCO[C@H]5CC[C@H]6[C@@H]7CCC8=CC(=O)CCC8=C7CC[C@]56C)CC4)ccc3nc2-1 [Compound 45] , tested with AR (cytosol from LnCaP cells) (Homo sapiens, UniProt P10275, T878A).
Reply text: 7.00 to 8.00

Inquiry: Tell me reported pIC50 for CC[C@@]1(O)C(=O)OCc2c1cc1n(c2=O)Cc2cc3c(CN4CCN(CCCCCCC5CCN(c6ccc(C(=O)N[C@H]7CC[C@H](Oc8ccc(C#N)c(Cl)c8C)CC7)nn6)CC5)CC4)cccc3nc2-1 [Compound 44] , tested with AR (cytosol from LnCaP cells) (Homo sapiens, UniProt P10275, T878A).
Reply text: 7.00 to 8.00

Inquiry: Tell me reported pIC50 for CC[C@@]1(O)C(=O)OCc2c1cc1n(c2=O)Cc2cc3c(CN(C)C)c(OC(=O)N4CCN(CCCCCN(C)c5ccc([C@H]6C[C@@]7(C)[C@@H](CC[C@]7(OC(C)=O)C(C)=O)[C@@H]7CCC8=CC(=O)CCC8=C76)cc5)CC4)ccc3nc2-1 [Compound 8] , tested with AR (cytosol from LnCaP cells) (Homo sapiens, UniProt P10275, T878A).
Reply text: > 8.00

Inquiry: Tell me reported pIC50 for CC[C@@]1(O)C(=O)OCc2c1cc1n(c2=O)Cc2cc3c(CN(C)C)c(OC(=O)N4C[C@H](C)N(CC5CCN(c6ccc(C(=O)N[C@H]7CC[C@H](Oc8ccc(C#N)c(Cl)c8C)CC7)nn6)CC5)C[C@H]4C)ccc3nc2-1 [Compound 32] , tested with AR (cytosol from LnCaP cells) (Homo sapiens, UniProt P10275, T878A).
Reply text: 6.00 to 7.00

Inquiry: Tell me reported pIC50 for CC[C@@]1(O)C(=O)OCc2c1cc1n(c2=O)Cc2c-1nc1cc(F)c(C)c3c1c2[C@@H](NC(=O)COCCCCCCN(C)c1ccc([C@H]2C[C@@]4(C)[C@@H](CC[C@]4(OC(C)=O)C(C)=O)[C@@H]4CCC5=CC(=O)CCC5=C42)cc1)CC3 [Compound No. 47] , tested with AR (cytosol from LnCaP cells) (Homo sapiens, UniProt P10275, T878A).
Reply text: 7.00 to 8.00

Inquiry: Tell me reported pIC50 for CC[C@@]1(O)C(=O)OCc2c1cc1n(c2=O)Cc2cc3c(CN(C)C)c(OCC4CCN(C(=O)CN(C)c5ccc([C@H]6C[C@@]7(C)[C@@H](CC[C@]7(OC(C)=O)C(C)=O)[C@@H]7CCC8=CC(=O)CCC8=C76)cc5)CC4)ccc3nc2-1 [Compound No. 19] , tested with AR (cytosol from LnCaP cells) (Homo sapiens, UniProt P10275, T878A).
Reply text: 7.00 to 8.00

Inquiry: Tell me reported pIC50 for CC[C@@]1(O)C(=O)OCc2c1cc1n(c2=O)Cc2cc3c(CN(C)C)c(OC(=O)N4CCN(C(=O)[C@H](CCCNC(N)=O)NC(=O)[C@@H](NCCCCCCN(C)c5ccc([C@H]6C[C@@]7(C)[C@@H](CC[C@]7(OC(C)=O)C(C)=O)[C@@H]7CCC8=CC(=O)CCC8=C76)cc5)C(C)C)CC4)ccc3nc2-1 [Compound 39] , tested with AR (cytosol from LnCaP cells) (Homo sapiens, UniProt P10275, T878A).
Reply text: 7.00 to 8.00

Inquiry: Tell me reported pIC50 for CC[C@@]1(O)C(=O)OCc2c1cc1n(c2=O)Cc2cc3c(CN(C)C)c(OC(=O)N4C[C@H](C)N(CCCCCCN(C)C5CCN(c6ccc(C(=O)N[C@H]7CC[C@H](Oc8ccc(C#N)c(Cl)c8C)CC7)nn6)CC5)C[C@H]4C)ccc3nc2-1 [Compound 33] , tested with AR (cytosol from LnCaP cells) (Homo sapiens, UniProt P10275, T878A).
Reply text: > 8.00

Inquiry: Tell me reported pIC50 for CC[C@@]1(O)C(=O)OCc2c1cc1n(c2=O)Cc2cc3c(CN4CCN(C(=O)C5CCN(c6ccc(C(=O)N[C@H]7CC[C@H](Oc8ccc(C#N)c(Cl)c8)CC7)nn6)CC5)CC4)c(OC(=O)N(C(C)C)C(C)C)ccc3nc2-1 [Compound 1] , tested with AR (cytosol from LnCaP cells) (Homo sapiens, UniProt P10275, T878A).
Reply text: 6.00 to 7.00

Inquiry: Tell me reported pIC50 for CC[C@@]1(O)C(=O)OCc2c1cc1n(c2=O)Cc2c-1nc1cc(F)c(C)c3c1c2[C@@H](NC(=O)CN1CCN(C(=O)CCCCCC2CCN(c4ccc(C(=O)N[C@H]5CC[C@H](N(C)c6ccc(C#N)c(Cl)c6)CC5)nn4)CC2)CC1)CC3 [Compound No. 46] , tested with AR (cytosol from LnCaP cells) (Homo sapiens, UniProt P10275, T878A).
Reply text: 6.00 to 7.00

* * *

SYSTEM UNDER TEST: full-length androgen receptor (HEK293 cells stably expressing) (Homo sapiens)
Sequence (P10275 whole entry): as the sequence (P10275 whole entry T878A) above, with A878T counted along it
METHOD SUMMARY: AR antagonism assay (luciferase reporter)
Record form. Attribute: IC50. Fill in for each entry.

Inquiry: Tell me reported IC50 for `CC[C@@]1(O)C(=O)OCc2c1cc1n(c2=O)Cc2cc3c(CN(C)C)c(OC(=O)N4C[C@H](C)N(CC5CCN(c6ccc(C(=O)N[C@H]7CC[C@H](N(C)c8ccc(C#N)c(Cl)c8)CC7)nn6)CC5)C[C@H]4C)ccc3nc2-1` , tested with full-length androgen receptor (HEK293 cells stably expressing) (Homo sapiens).
Reply text: > 1000 nM

Inquiry: Tell me reported IC50 for `CC[C@@]1(O)C(=O)OCc2c1cc1n(c2=O)Cc2cc3c(CN(C)C)c(OC(=O)N(C)Cc4ccc(NC(=O)[C@H](CCCNC(N)=O)NC(=O)[C@@H](NCCCCCCN(C)c5ccc([C@H]6C[C@@]7(C)[C@@H](CC[C@]7(OC(C)=O)C(C)=O)[C@@H]7CCC8=CC(=O)CCC8=C76)cc5)C(C)C)cc4)ccc3nc2-1` , tested with full-length androgen receptor (HEK293 cells stably expressing) (Homo sapiens).
Reply text: > 1000 nM

Inquiry: Tell me reported IC50 for `CC[C@@]1(O)C(=O)OCc2c1cc1n(c2=O)Cc2cc3c(CN4CCN(CC5CCN(c6ccc(N7C(=S)N(c8ccc(C#N)c(Cl)c8)C(=O)C7(C)C)cc6)CC5)CC4)c(O)ccc3nc2-1` , tested with full-length androgen receptor (HEK293 cells stably expressing) (Homo sapiens).
Reply text: 10 to 100 nM

Inquiry: Tell me reported IC50 for `CC[C@@]1(O)C(=O)OCc2c1cc1n(c2=O)Cc2c-1nc1cc(F)c(C)c3c1c2[C@@H](NC(=O)OCc1ccc(NC(=O)[C@H](CCCNC(N)=O)NC(=O)[C@@H](NCCCCCCN(C)c2ccc([C@H]4C[C@@]5(C)[C@@H](CC[C@]5(OC(C)=O)C(C)=O)[C@@H]5CCC6=CC(=O)CCC6=C54)cc2)C(C)C)cc1)CC3` , tested with full-length androgen receptor (HEK293 cells stably expressing) (Homo sapiens).
Reply text: 101 to 1000 nM

Inquiry: Tell me reported IC50 for `CC[C@@]1(O)C(=O)OCc2c1cc1n(c2=O)Cc2cc3c(CN4CCN(CCCCCCC5CCN(c6ccc(C(=O)N[C@H]7CC[C@H](N(C)c8ccc(C#N)c(Cl)c8)CC7)nn6)CC5)CC4)c(O)ccc3nc2-1` , tested with full-length androgen receptor (HEK293 cells stably expressing) (Homo sapiens).
Reply text: 101 to 1000 nM

Inquiry: Tell me reported IC50 for `CC[C@@]1(O)C(=O)OCc2c1cc1n(c2=O)Cc2cc3c(CN(C)C)c(OC(=O)N4CCN(CCCCCCN(C)C5CCN(c6ccc(C(=O)N[C@H]7CC[C@H](Oc8ccc(C#N)c(Cl)c8C)CC7)nn6)CC5)CC4)ccc3nc2-1` , tested with full-length androgen receptor (HEK293 cells stably expressing) (Homo sapiens).
Reply text: 101 to 1000 nM

Inquiry: Tell me reported IC50 for `CC[C@@]1(O)C(=O)OCc2c1cc1n(c2=O)Cc2cc3c(CN4CCN(C(=O)CCCCCC5CCN(c6ccc(C(=O)N[C@H]7CC[C@H](N(C)c8ccc(C#N)c(Cl)c8)CC7)nn6)CC5)CC4)c(O)ccc3nc2-1` , tested with full-length androgen receptor (HEK293 cells stably expressing) (Homo sapiens).
Reply text: > 1000 nM

Inquiry: Tell me reported IC50 for `CC[C@@]1(O)C(=O)OCc2c1cc1n(c2=O)Cc2cc3c(CN4CCN(CCCCCCC5CCN(c6ccc(C(=O)N[C@H]7CC[C@H](Oc8ccc(C#N)c(Cl)c8C)CC7)nn6)CC5)CC4)cccc3nc2-1` , tested with full-length androgen receptor (HEK293 cells stably expressing) (Homo sapiens).
Reply text: > 1000 nM
